Origin of measurements: PubChem BioAssay (NCATS)

# measured-target: Muscarinic acetylcholine receptor M1 (Rattus norvegicus)
# procedure-details: qHTS Assay for Antagonists of Acetylcholine Muscarinic M1 Receptor: Kinetic Measurement of Intracellular Calcium Response (AID 943); further: nearly all actives have a fitted effect of over 75% in size
# recorded-conditions: M1-expressing cells, kinetic intracellular calcium fluorescence; series mostly up to 35.3 µM
Records with an inconclusive call do not appear. Calls of active or inactive are those of the source. The call rests on the fitted dose curve; in most records, active means well fitted inhibition curve with a large enough effect; inconclusive means small, poorly fitted or top-dose-only effect; inactive means no such curve, though single readings can be large or run the other way.
Use one of these outcomes when replying: active, inactive

Some solved entries appear below for comparison.
smiles-repr	assigned-category
N[C@H](C(=O)N[C@@H]1C(=O)N2C(C(=O)O)=C(Cl)CS[C@@H]12)c1ccccc1	inactive
CC[C@H](NC(C)C)[C@H](O)c1ccc(O)c(O)c1	inactive
C[C@H](NCCc1ccc(O)cc1)[C@@H](O)c1ccc(O)cc1	active

Request: Record lookup: outcome of this test for CN(C)[C@@H]1C(=O)C(C(N)=O)=C(O)[C@]2(O)C(=O)C3=C(O)c4c(O)ccc(Cl)c4[C@H](O)[C@H]3C[C@@H]12 ?
Response: inactive

Request: Please state the recorded outcome for this compound: C[C@@H]1c2cccc(O)c2C(O)=C2C(=O)[C@@]3(O)C(O)=C(C(N)=O)C(=O)[C@@H](N(C)C)[C@@H]3[C@@H](O)[C@@H]21
Response: inactive

Request: Test call for this compound, please: CC(=O)OCC1=C(C(=O)O)N2C(=O)[C@@H](NC(=O)Cc3cccs3)[C@@H]2SC1
Response: inactive

Request: So what was the verdict on N[C@@H](CO)C(=O)NNCc1ccc(O)c(O)c1O in this test?
Response: inactive

Request: // outcome(item) with item = CCN(CC)CCC[C@H](C)Nc1ccnc2cc(Cl)ccc12
Response: active

Request: So what was the verdict on CN1C(=O)CC[C@@H]1c1cccnc1 in this test?
Response: inactive

Request: Dear all, I need the recorded test outcome for CC(=O)OCC1=C(C(=O)O)N2C(=O)[C@@H](NC(=O)CSc3ccncc3)[C@@H]2SC1 , thank you.
Response: inactive

Request: Test call for this compound, please: C[C@@H](C[N+](C)(C)C)OC(N)=O
Response: inactive

Request: What classification did CN(C)CC[C@@H](c1ccccc1)c1ccccn1 end up with in this test?
Response: active

Request: For this compound, state the assay outcome: COc1cc(=O)n(C)c2c(OC[C@@H](O)C(C)(C)O)cccc12
Response: inactive

Request: Status in this test for O=C(O)CNC(=O)[C@@H](CS)Cc1ccccc1 ?
Response: inactive
